Source listed as patent US20260008847A1.

- system: T1, Human LILRB2 stably expressed on EL4 cells (EL4/LILRB2) (human, UniProt Q8N423 22-597)
- T1 construct: also called EL4-LILRB2 cells; cell membrane human LILRB2
- T1 sequence (Q8N423 22-597 limits assumed): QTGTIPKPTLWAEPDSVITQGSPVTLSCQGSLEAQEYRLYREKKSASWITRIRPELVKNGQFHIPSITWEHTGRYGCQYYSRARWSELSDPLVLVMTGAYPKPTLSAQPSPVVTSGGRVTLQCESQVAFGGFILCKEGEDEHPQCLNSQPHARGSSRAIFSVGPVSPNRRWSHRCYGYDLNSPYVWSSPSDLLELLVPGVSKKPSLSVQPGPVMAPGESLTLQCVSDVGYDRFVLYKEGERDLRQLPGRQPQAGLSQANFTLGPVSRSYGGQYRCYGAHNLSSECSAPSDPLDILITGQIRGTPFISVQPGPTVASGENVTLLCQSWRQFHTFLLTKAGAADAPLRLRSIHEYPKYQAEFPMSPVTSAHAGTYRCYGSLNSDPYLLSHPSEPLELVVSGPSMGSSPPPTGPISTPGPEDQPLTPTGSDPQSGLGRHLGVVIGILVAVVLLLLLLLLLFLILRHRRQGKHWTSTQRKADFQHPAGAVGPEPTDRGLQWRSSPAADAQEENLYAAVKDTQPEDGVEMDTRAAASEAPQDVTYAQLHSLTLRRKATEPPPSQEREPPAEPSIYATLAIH
- procedure.text: FACS on EL4/LILRB2 cells
Below, each of the binders is paired with its reported pEC50 value.
Answer as the number alone; pEC50 is minus log10 of concentration in mol/L.

Observe how each entry below is paired with its result.
hu043.05 (antibody, V domains shown, Humanized human IgG4 antibody with S228P in the constant region; also called hu043VH7 / hu043VL2) VH: QVQLVQSGAEVKKPGASVKVSCKASGYTFTSYWMYWVRQAPGQGLEWIGHINPSSGYTKYNQKFKDRVTMTADTSTSTVYMELSSLRSEDTAVYYCARDPNWDNYWGQGTTVTVSS VL: DIQMTQSPSSLSASVGDRVTITCKASQDVSIAVAWYQQKPGKAPKLLIYSASYRYTGVPSRFSGSGSGTDFTFTISSLQPEDIATYYCQQHYSTPYTFGGGTKLEIK = 9.38
hu043.03 (antibody, V domains shown, Humanized human IgG4 antibody with S228P in the constant region; also called hu043VH8 / hu043VL4) VH: QVQLQQSGAEVKKPGASVKLSCKASGYTFTSYWMYWVRQRPGQGLEWIGHINPSSGYTKYNQKFKDRATLTADTSTSTAYMELSSLRSEDTAVYYCARDPNWDNYWGQGTTVTVSS VL: DIVMTQSPSSLSASVGDRVSITCKASQDVSIAVAWYQQKPGKAPKLLIYSASYRYTGVPDRFSGSGSGTDFTFTISSLQPEDIATYYCQQHYSTPYTFGGGTKLEIK = 9.39

Now for a further binder.
Which value of pEC50 has been reported for hu043.01 (antibody, V domains shown, Humanized human IgG4 antibody with S228P in the constant region; also called hu043VH6 / hu043VL4) VH: QVQLVQSGAEVKKPGASVKVSCKASGYTFTSYWMYWVRQAPGQGLEWIGHINPSSGYTKYNQKFKDRATLTADTSTSTAYMELSSLRSEDTAVYYCARDPNWDNYWGQGTTVTVSS VL: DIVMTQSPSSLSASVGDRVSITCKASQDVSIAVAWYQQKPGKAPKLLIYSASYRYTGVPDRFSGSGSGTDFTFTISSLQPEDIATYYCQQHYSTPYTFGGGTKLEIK in the records?
9.38
